Test system: U2OS
Experiment Summary: Multiplex assay against U2OS
Assay type: toxicity, cell-based
Assay Setup: human, 24 h, 10 µM, compound concentration 10 uM, replicate 1
Parameter: Population Tubulin-Different-Phenotype (%)

# Compound, Unit Label, Test Value
rows = [
    ("c1cc(OCCCN2CCCCC2)ccc1CN1CCCCC1 [JNJ-5207852]", "%", 3),
    ("CC(C)(C)c1ccc(S(=O)(=O)Nc2ccc(Cl)cc2C(=O)c2cc[n+]([O-])cc2)cc1 [VERCIRNON]", "%", 1),
    ("CSc1ccccc1N1CCN(CCCCCC(=O)NC2CCCc3ccccc32)CC1.Cl (centres undefined)", "%", 91),
    ("CCNC1(C(N)=O)CCN(c2ncnc3c2nc(-c2ccccc2Cl)n3-c2ccc(Cl)cc2)CC1 [OTENABANT]", "%", 78),
    ("CN(C)c1ccnc2sc3c(=O)n(N4CCCCCC4)cnc3c12", "%", 14),
    ("Cc1ccc(C(C)(O)c2nc3ccccc3s2)c(C)c1 (centres undefined)", "%", 3),
    ("C[C@@H]1C[C@H]2[C@@H]3CCC4=CC(=O)C=C[C@]4(C)[C@@]3(F)[C@@H](O)C[C@]2(C)[C@@]1(O)C(=O)CO [DEXAMETHASONE]", "%", 2),
    ("CC(=O)NCCc1c(Cc2ccccc2)[nH]c2ccccc12 [LUZINDOLE]", "%", 4),
    ("O=C(O)Cc1ccccc1Nc1c(Cl)cccc1Cl [DICLOFENAC]", "%", 2),
]

###

Tested on: HEK-293T
Experiment Summary: Multiplex assay against HEK293T
Format: toxicity, cell-based
Assay Setup: human, 24 h, 10 µM, compound concentration 10 uM, replicate 1

# Structure, Population Pyknosed Nuclei (%)
records = [
    ("O=C(O)Cc1ccccc1Nc1c(Cl)cccc1Cl", "12%"),
    ("CN(C)c1ccnc2sc3c(=O)n(N4CCCCCC4)cnc3c12", "16%"),
    ("C[C@H](NC(=O)c1c(C(F)F)nn(C)c1Oc1cccc(C(F)(F)F)c1)c1ccc(C(=O)O)cc1", "16%"),
    ("Cc1ccc(F)cc1C(=O)Nc1ccc(C(=O)N2Cc3cccn3Cc3ccccc32)c(Cl)c1", "24%"),
    ("Cc1ccc(/C(=C\\CN2CCCC2)c2ccccn2)cc1", "13%"),
]

###

Test system: U2OS
Experiment Summary: Multiplex assay against U2OS
Assay type: toxicity, cell-based
Assay Setup: human, 24 h, 10 µM, compound concentration 10 uM, replicate 2
# if measured Population Healthy Nuclei (%) < 70%: true  # else: false

# Compound, Test Target, Label Value
data = [
    ("CC[C@H]1OC(=O)[C@H](C)[C@@H](O[C@H]2C[C@@](C)(OC)[C@@H](O)[C@H](C)O2)[C@H](C)[C@@H](O[C@@H]2O[C@H](C)C[C@H](N(C)C)[C@H]2O)[C@@]2(C)CC(C)=C(O2)[C@H](C)[C@@H](O)[C@]1(C)O", "U2OS", "true"),
    ("C[C@H](NC(=O)c1c(C(F)F)nn(C)c1Oc1cccc(C(F)(F)F)c1)c1ccc(C(=O)O)cc1", "U2OS", "false"),
    ("CN(C)c1ccnc2sc3c(=O)n(N4CCCCCC4)cnc3c12", "U2OS", "false"),
    ("Cc1nc2ccc(Oc3ccc(F)cc3)cc2c(=O)n1C[C@H]1CCCN(C(C)C)C1.Cl", "U2OS", "true"),
    ("N[C@@]1(C(=O)O)CO[C@H]2[C@H](C(=O)O)[C@H]21", "U2OS", "false"),
    ("Cl.Clc1ccc2nsnc2c1NC1=NCCN1 [TIZANIDINE HYDROCHLORIDE]", "U2OS", "true"),
    ("c1cc(OCCCN2CCCCC2)ccc1CN1CCCCC1", "U2OS", "false"),
    ("CNC[C@H](O)c1ccc(O)c(O)c1 [EPINEPHRINE]", "U2OS", "true"),
    ("CC1(COc2ccc3c(c2)ncn3-c2ccc3cccc(N4CCC(N)CC4)c3n2)COC1", "U2OS", "true"),
    ("Cc1ccc(F)cc1C(=O)Nc1ccc(C(=O)N2Cc3cccn3Cc3ccccc32)c(Cl)c1", "U2OS", "true"),
    ("O=C(NCCO)c1cccc(-c2cc(Nc3ccc(OC(F)(F)F)cc3)ncn2)c1", "U2OS", "false"),
    ("COc1cc(NC(=O)CCN2CCC(OC(=O)Nc3ccccc3-c3ccccc3)CC2)c(Cl)cc1CNC[C@H](O)c1ccc(O)c2[nH]c(=O)ccc12", "U2OS", "true"),
]

###

System: U2OS
Experiment Summary: Multiplex assay against U2OS
Assay type: toxicity, cell-based
Assay Setup: human, 48 h, 10 µM, compound concentration 10 uM, replicate 2
As shown below, each of these molecules has a reported Population Hoechst High Intensity Objects (%) value.
Parameter: Population Hoechst High Intensity Objects (%)

# Molecule, Test Value
data = [
    ("C[C@H]1[C@H]2CC[C@H]3[C@@H]4CC=C5C[C@@H](N(C)C)CC[C@]5(C)[C@H]4CC[C@]23CN1C", 6),
    ("Cc1ccc(F)cc1C(=O)Nc1ccc(C(=O)N2Cc3cccn3Cc3ccccc32)c(Cl)c1", 12),
    ("CC[C@H]1OC(=O)[C@H](C)[C@@H](O[C@H]2C[C@@](C)(OC)[C@@H](O)[C@H](C)O2)[C@H](C)[C@@H](O[C@@H]2O[C@H](C)C[C@H](N(C)C)[C@H]2O)[C@@]2(C)CC(C)=C(O2)[C@H](C)[C@@H](O)[C@]1(C)O", 9),
    ("CSc1ccccc1N1CCN(CCCCCC(=O)NC2CCCc3ccccc32)CC1.Cl (configuration not stated)", 11),
    ("CC(=O)NCCc1c(Cc2ccccc2)[nH]c2ccccc12", 1),
    ("Oc1c(CN2CCN(c3ccccn3)CC2)cc(Cl)c2cccnc12", 4),
    ("CCCC(CCC)C(=O)O", 1),
    ("O=C(NCC(=O)N1CC[C@H](N[C@H]2CC[C@@](O)(c3ccc(-c4ncccn4)cn3)CC2)C1)c1cccc(C(F)(F)F)c1", 0),
    ("Cc1ccc(C(C)(O)c2nc3ccccc3s2)c(C)c1 (configuration not stated)", 5),
    ("Cc1ccc(/C(=C\\CN2CCCC2)c2ccccn2)cc1", 4),
    ("Cc1nc2ccc(Oc3ccc(F)cc3)cc2c(=O)n1C[C@H]1CCCN(C(C)C)C1.Cl", 8),
    ("O=C(O)Cc1ccccc1Nc1c(Cl)cccc1Cl", 1),
    ("COc1c(C)cc(NC(=O)c2nn(Cc3ccc(F)cc3)c3c2CN(C(=O)c2ccc[nH]2)C[C@]3(C)C(N)=O)cc1C", 9),
    ("C[C@H](NC(=O)c1c(C(F)F)nn(C)c1Oc1cccc(C(F)(F)F)c1)c1ccc(C(=O)O)cc1", 1),
    ("CN1CCN(c2nc3cc(C(F)(F)F)ccc3n3cccc23)CC1.O=C(O)/C=C\\C(=O)O.O=C(O)/C=C\\C(=O)O", 3),
    ("CN(C)CCCc1cc(C(=O)Nc2ccc(-c3ccncc3)cc2)ccc1O.Cl.Cl", 4),
    ("O=C(O)c1cc2ccccc2c(Cc2c(O)c(C(=O)O)cc3ccccc23)c1O", 0),
]

###

Test system: U2OS
Experiment Summary: Multiplex assay against U2OS
Type: toxicity, cell-based
Assay Setup: human, 24 h, 10 µM, compound concentration 10 uM, replicate 2
Quick rule: Population Pyknosed Nuclei (%) of at least 9% means Yes, below that means No.

# Compound, Label Value
records = [
    ("COc1cc(C(=O)N(CCCc2ccccc2)Cc2ccc(CC(=O)O)cc2)cc(OC)c1C", "No"),
    ("CCNC1(C(N)=O)CCN(c2ncnc3c2nc(-c2ccccc2Cl)n3-c2ccc(Cl)cc2)CC1 [OTENABANT]", "Yes"),
    ("O=C(O)c1cc2ccccc2c(Cc2c(O)c(C(=O)O)cc3ccccc23)c1O [PAMOIC ACID]", "No"),
    ("CC[C@H]1OC(=O)[C@H](C)[C@@H](O[C@H]2C[C@@](C)(OC)[C@@H](O)[C@H](C)O2)[C@H](C)[C@@H](O[C@@H]2O[C@H](C)C[C@H](N(C)C)[C@H]2O)[C@@]2(C)CC(C)=C(O2)[C@H](C)[C@@H](O)[C@]1(C)O", "Yes"),
    ("CSc1ccccc1N1CCN(CCCCCC(=O)NC2CCCc3ccccc32)CC1.Cl (stereo not drawn)", "Yes"),
    ("Cl.Clc1ccc2nsnc2c1NC1=NCCN1 [TIZANIDINE HYDROCHLORIDE]", "Yes"),
]

###

Test system: U2OS
Experiment Summary: Multiplex assay against U2OS
Assay type: toxicity, cell-based
Assay Setup: human, 24 h, 1 µM, compound concentration 1 uM, replicate 1
Quick rule: Population Pyknosed Nuclei (%) of at least 10% means True, below that means False.

# Compound, Label Value
measured = [
    ("CC1(COc2ccc3c(c2)ncn3-c2ccc3cccc(N4CCC(N)CC4)c3n2)COC1", "True"),
    ("COc1cc(NC(=O)CCN2CCC(OC(=O)Nc3ccccc3-c3ccccc3)CC2)c(Cl)cc1CNC[C@H](O)c1ccc(O)c2[nH]c(=O)ccc12", "True"),
    ("CNC[C@H](O)c1ccc(O)c(O)c1 [EPINEPHRINE]", "False"),
    ("CCNC1(C(N)=O)CCN(c2ncnc3c2nc(-c2ccccc2Cl)n3-c2ccc(Cl)cc2)CC1", "True"),
    ("CCOc1c2c(c(OCC)c3ncccc13)CN(c1ccc(CS(=O)(=O)NC(=O)Cc3ccccc3OC)cc1C)C2=O", "False"),
    ("Cc1ccc(F)cc1C(=O)Nc1ccc(C(=O)N2Cc3cccn3Cc3ccccc32)c(Cl)c1", "False"),
    ("c1cc(OCCCN2CCCCC2)ccc1CN1CCCCC1", "False"),
    ("N#Cc1c(N)nc(SCc2csc(-c3ccc(Cl)cc3)n2)c(C#N)c1-c1ccc(OCCO)cc1", "True"),
]

Origin of the recorded values: ChEMBL document CHEMBL5058577
